Test: Selectivity index, ratio of IC50 for cytotoxicity against human L02 cells to IC50 for antiproliferative activity against human HepG2 cells
Format: toxicity, cell-based
Conditions: read-out: Ratio IC50
Decision: selectivity ratio beneath 8 gives 1 (yes); selectivity ratio meeting or exceeding 8 gives 0 (no).

Examples with answers:
CCOP(=O)(OCC)C(Nc1ccc(CCCC(=O)OCCOc2cc(/C=C\c3cc(OC)c(OC)c(OC)c3)ccc2OC)cc1)c1ccc(F)cc1 (configuration not stated) : 1 (yes)
CCOP(=O)(OCC)C(Nc1ccc(CC(=O)OCCOc2cc(/C=C\c3cc(OC)c(OC)c(OC)c3)ccc2OC)cc1)c1ccccc1 (configuration not stated) : 1 (yes)
CCOP(=O)(OCC)C(Nc1ccc(CC(=O)OCCOc2cc(/C=C\c3cc(OC)c(OC)c(OC)c3)ccc2OC)cc1)c1ccc(C)cc1 (configuration not stated) : 0 (no)
CCOP(=O)(OCC)C(Nc1ccc(CCCC(=O)OCCOc2cc(/C=C\c3cc(OC)c(OC)c(OC)c3)ccc2OC)cc1)c1ccc(Cl)cc1 (configuration not stated) : 1 (yes)
CCOP(=O)(OCC)C(Nc1ccc(CCCC(=O)OCCOc2cc(/C=C\c3cc(OC)c(OC)c(OC)c3)ccc2OC)cc1)c1ccc(OC)cc1 (configuration not stated) : 0 (no)
CCOP(=O)(OCC)C(Nc1ccc(CCCC(=O)OCCOc2cc(/C=C\c3cc(OC)c(OC)c(OC)c3)ccc2OC)cc1)c1ccc(Br)cc1 (configuration not stated) : 1 (yes)
CCOP(=O)(OCC)C(Nc1ccc(CC(=O)OCCOc2cc(/C=C\c3cc(OC)c(OC)c(OC)c3)ccc2OC)cc1)c1ccc(Cl)cc1 (configuration not stated) : 1 (yes)
CCOP(=O)(OCC)C(Nc1ccc(CC(=O)OCCOc2cc(/C=C\c3cc(OC)c(OC)c(OC)c3)ccc2OC)cc1)c1ccc(Br)cc1 (configuration not stated) : 1 (yes)
CCOP(=O)(OCC)C(Nc1ccc(CC(=O)OCCOc2cc(/C=C\c3cc(OC)c(OC)c(OC)c3)ccc2OC)cc1)c1ccc(F)cc1 (configuration not stated) : 0 (no)
CCOP(=O)(OCC)C(Nc1ccc(CC(=O)OCCOc2cc(/C=C\c3cc(OC)c(OC)c(OC)c3)ccc2OC)cc1)c1cccc(OC)c1 (configuration not stated) : 0 (no)

Next:
Q: Strictly below 8 in selectivity ratio? CCOP(=O)(OCC)C(Nc1ccc(CCCC(=O)OCCOc2cc(/C=C\c3cc(OC)c(OC)c(OC)c3)ccc2OC)cc1)c1ccccc1 (configuration not stated)
A: 1 (yes)
